- method.description: Pharmacokinetics and bioavailability of [14C]-MDL 73,745 in Beagle dogs
- Type: in vivo, Beagle dog
- test.parameters: dog, in vivo, po, 10 mg/kg, oral 10 mg/kg, dog No. 19
measured.quantity: half-life (h)
Write the value in h as a bare number.

Input: Dear colleague, please send me the reported half-life for "C[Si](C)(C)c1cccc(C(=O)C(F)(F)F)c1" when you can.
Output: 17.4

====

- method.description: Pharmacokinetics and bioavailability of [14C]-MDL 73,745 in Beagle dogs
- Format: in vivo, Beagle dog
- test.parameters: dog, in vivo, po, 10 mg/kg, oral 10 mg/kg, dog No. 19
measured.quantity: Cmax (ng/mL)
Quick reminder: number only, in ng/mL, skip the unit.

Input: Supply Cmax value. Item: "C[Si](C)(C)c1cccc(C(=O)C(F)(F)F)c1"
Output: 21.8

====

- method.description: Pharmacokinetics and bioavailability of [14C]-MDL 73,745 in Beagle dogs
- Format: in vivo, Beagle dog
- test.parameters: dog, in vivo, iv, 2 mg/kg, iv 2 mg/kg, dog No. 17
measured.quantity: half-life (h)
Write the number in h without appending the unit.

Input: Respond only with half-life recorded for "C[Si](C)(C)c1cccc(C(=O)C(F)(F)F)c1"
Output: 18.6

====

- method.description: Pharmacokinetics and bioavailability of [14C]-MDL 73,745 in Beagle dogs
- Format: in vivo, Beagle dog
- test.parameters: dog, in vivo, sc, 10 mg/kg, subcutaneous 10 mg/kg, dog No. 17
- Protocol: Three male Beagle dogs were studied. Animals were fasted 12 h before drug administration but had free access to drinking water. The following single doses of [^14 C]-MDL 73,745 were administered: intravenous (iv): 1 and 2 mg/kg; oral (po): 10 mg/kg; subcutaneous (sc): 10 mg/kg. There was a two week wash-out period between each administration. Drug was administered as a suspension in 0.5% methyl cellulose. […]
measured.quantity: half-life
Note: a bare number is incomplete; add the unit.

Input: Fill in half-life for record C[Si](C)(C)c1cccc(C(=O)C(F)(F)F)c1 [MDL 73,745]
Output: 12.8 h

====

- method.description: Pharmacokinetics and bioavailability of [14C]-MDL 73,745 in Beagle dogs
- Format: in vivo, Beagle dog
- test.parameters: dog, in vivo, po, 10 mg/kg, oral 10 mg/kg, mean ± SD of 3 dogs
measured.quantity: half-life (h)
State the answer as a number, implicitly in h.

Input: Return half-life (reported value) for this molecule: "C[Si](C)(C)c1cccc(C(=O)C(F)(F)F)c1"
Output: 22.8

====

- method.description: Pharmacokinetics and bioavailability of [14C]-MDL 73,745 in Beagle dogs
- Type: in vivo, Beagle dog
- test.parameters: dog, in vivo, sc, 10 mg/kg, subcutaneous 10 mg/kg, normalized to 2 mg/kg iv, dog No. 18; read-out: F
measured.quantity: bioavailability
# output: number + unit

Input: For C[Si](C)(C)c1cccc(C(=O)C(F)(F)F)c1 [MDL 73,745] , write its bioavailability.
Output: 25%

====

- method.description: Pharmacokinetics and bioavailability of [14C]-MDL 73,745 in Beagle dogs
- Type: in vivo, Beagle dog
- test.parameters: dog, in vivo, po, 10 mg/kg, oral 10 mg/kg, normalized to 2 mg/kg iv, mean ± SD of 3 dogs; read-out: F (AUCpo /AUCiv)
measured.quantity: bioavailability (%)
Express your answer in %, writing the number without its unit.

Input: For "C[Si](C)(C)c1cccc(C(=O)C(F)(F)F)c1" , write its bioavailability.
Output: 3.5
